target: COP9 signalosome complex subunit 5 (Homo sapiens); assay: CSN5 deneddylase inhibitors on cullin-RING ligase – biochemical, fluorescence polarization, uHTS, primary screen (AID 651999); conditions: Purified CSN, SCF-Nedd8-OG deneddylation, at 12.5 µM, stronger effect = higher value;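 also: 0% = enzyme with substrate and 100% = substrate without enzyme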
Out of some 360,000 compounds screened, about 1,400 (0.39%) were called active. For the sample, actives were picked, then their nearest neighbours and some compounds at random.

>  <MOLECULE>
COc1ccc(C2=Nc3ccccc3NC(=O)C2N(C(=O)c2cc3ccccc3[nH]2)c2ccccc2)cc1 (stereo not given)

>  <inhibition / %>
1.01

$$$$
>  <MOLECULE>
O=C(Nc1cccnc1)c1cc2cc(Br)ccc2oc1=O

>  <inhibition / %>
5.43

$$$$
>  <MOLECULE>
Cc1ccc(NC(=O)COc2ccc(-n3ccnc3)cc2)cc1Cl

>  <inhibition / %>
0

$$$$
>  <MOLECULE>
Cn1c2c(c(=O)n(C)c1=O)[C@@H]1c3c(ccc4ccccc34)OC[C@@H]1CO2

>  <inhibition / %>
0.02

$$$$
>  <MOLECULE>
CCC(C)Cn1c(O)cc2nn(-c3nc4ccccc4s3)c(=O)c-2c1C (stereo not given)

>  <inhibition / %>
35.4

$$$$
>  <MOLECULE>
C/C(CC(=O)N1CCN(C=O)CC1)=N\NC(=O)c1ccc(Br)cc1

>  <inhibition / %>
-6.38

$$$$
>  <MOLECULE>
Cc1ccc(NC(=O)COc2ccc(/C=N\NC(=O)c3cccnc3)cc2)cc1C

>  <inhibition / %>
158

$$$$
>  <MOLECULE>
O=C(Nc1ccc(Br)cc1)c1cc(S(=O)(=O)Nc2ccccn2)ccc1Cl

>  <inhibition / %>
-4.77

$$$$
>  <MOLECULE>
Cc1cc(C)c(S(=O)(=O)NCC(c2ccc3c(c2)OCO3)N2CCOCC2)c(C)c1 (stereo not given)

>  <inhibition / %>
4.99

$$$$
>  <MOLECULE>
CCC(C)NC(=O)N[C@@H](CCSC)C(=O)O (stereo not given in full)

>  <inhibition / %>
-1.26

$$$$
